Would you kindly list fold change for each of these molecules?
# method_description: HSE-luciferase reporter activators – cell-based (AID 1611)
# condition: human cells, HSE-luciferase heat shock reporter; stronger effect = higher value
Respond numerically, and do not add a unit to the figure.

Field fold change (entry Clc1ccc(COC(Cn2ccnc2)c2ccc(Cl)cc2Cl)cc1 (configuration not stated) ) reads 1.04

Lab note: measured fold change of "O=c1[nH]oc2c1CCNC2" was 1.02

GET /value?item= C[C@H]1O[C@@H](O[C@H]2[C@@H](O)C[C@H](O[C@H]3[C@@H](O)C[C@H](O[C@H]4CC[C@]5(C)C6CC[C@]7(C)[C@@H](C8=CC(=O)OC8)CC[C@]7(O)C6CC[C@@H]5C4)O[C@@H]3C)O[C@@H]2C)C[C@H](O)[C@@H]1O (some centres not stated) &field=fold change returns 78

Form: molecule = [N-]=[N+]=CC(=O)OCC(N)C(=O)O (configuration not stated) ; fold change = 1.29

# molecule C#CC1(O)CCC2C3CCC4=CC(=O)CCC4(C)C3CCC21C (configuration not stated) ; its fold change = 0.91

CC(=O)C1=C(O)C2C3c4c[nH]c5cccc(c45)CC3C(C)(C)N2C1=O (configuration not stated) yielded fold change of 1.11

# fold change of C=CCN1CC[C@]23c4c5ccc(O)c4OC2C(=O)CC[C@@]3(O)[C@H]1C5 (some centres not stated) = 1.1
